Values were extracted from ChEMBL document CHEMBL5338785.

Kindly supply the reported HC50 at 1 h values for the records listed here.
- assay_summary: Hemolytic activity in sheep RBC assessed as hemolysis incubated for 1 hr by microplate reader method
- Format: toxicity, cell-based, Ovis aries, Erythrocyte
- test_context: sheep red blood cells

Use the examples below as a reference point.
# smiles_notation, HC50 at 1 h
data = [
    ("CCCCCCCCCCN(CCOc1ccc(OCCN(CCCCCCCCCC)C(=O)[C@@H](N)CCCCN)cc1)C(=O)[C@@H](N)CCCCN.Cl.Cl.Cl.Cl", "< 2.5 µg/mL"),
    ("CCCCCCN(CCCOc1ccc2c(OCCCN(CCCCCC)C(=O)[C@@H](N)CCCCN)cccc2c1)C(=O)[C@@H](N)CCCN.Cl.Cl.Cl.Cl", "612 µg/mL"),
]

# input Query: HC50 at 1 h; subject: `CCCCCCCN(CCCCOc1ccc(OCCCCN(CCCCCCC)C(=O)[C@@H](N)CCCCN)cc1)C(=O)[C@@H](N)CCCCN.Cl.Cl.Cl.Cl`
# output 148 µg/mL
